Biological target: KRAS G12D (Homo sapiens, UniProt P01116+P62937, G12D)
Sequence (P01116 1-169 isoform P01116-2 G12D limits assumed): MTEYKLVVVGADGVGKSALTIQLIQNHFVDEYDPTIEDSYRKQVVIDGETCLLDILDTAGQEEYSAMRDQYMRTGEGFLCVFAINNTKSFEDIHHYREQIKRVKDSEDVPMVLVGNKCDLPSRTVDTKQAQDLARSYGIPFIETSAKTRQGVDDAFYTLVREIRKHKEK
Sequence (P62937 whole entry): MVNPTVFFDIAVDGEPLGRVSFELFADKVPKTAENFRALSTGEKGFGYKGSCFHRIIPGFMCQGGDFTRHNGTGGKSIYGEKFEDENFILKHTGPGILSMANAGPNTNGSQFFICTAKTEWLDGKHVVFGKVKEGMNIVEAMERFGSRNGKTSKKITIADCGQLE
Assay: Ras-Raf disruption / FRET / MOA assay (BRAF RBD)
Format: biochemical
Settings: KRAS G12D FRET data IC50, Ras-Raf disruption, with Cyclophilin A
Quick reference for IC50 among some compounds
experimentalEndpoint: IC50

• CCn1c(-c2cccnc2[C@H](C)OC)c2c3cc(ccc31)-c1cc(O)cc(c1)C[C@H](NC(=O)[C@H](C(C)C)N(C)C(=O)CN(C)C(=O)[C@H]1CN1CCCOC(C)=O)C(=O)N1CCC[C@H](N1)C(=O)OCC(C)(C)C2 (stereo partly shown) = 100 to 1000 nM
• CCn1c(-c2cc(C3CCN(C)CC3)cnc2[C@H](C)OC)c2c3cc(ccc31)-c1cc(O)cc(c1)C[C@H](NC(=O)[C@H](C1CCCC1)N(C)C(=O)CN(C)C(=O)[C@H]1CN1)C(=O)N1CCC[C@H](N1)C(=O)OCC(C)(C)C2 = 10 to 100 nM
• CCn1c(-c2cccnc2[C@H](C)OC)c2c3cc(ccc31)-c1cc(O)cc(c1)C[C@H](NC(=O)[C@H](C1CCCC1)N(C)C(=O)CN(C)C(=O)[C@H]1N[C@H]1C1(C#N)CC1)C(=O)N1CCC[C@H](N1)C(=O)OCC(C)(C)C2 = 10 to 100 nM
• CCn1c(-c2cccnc2[C@H](C)OC)c2c3cc(ccc31)-c1cc(O)cc(c1)C[C@H](NC(=O)[C@H](C(C)C)N(C)C(=O)C13CCC(CC1)N3C(=O)[C@H]1CN1)C(=O)N1CCC[C@H](N1)C(=O)OCC(C)(C)C2 = 100 to 1000 nM

This collection of values is drawn from patent US20230233569A1.
